Target: Cellular tumor antigen p53 (Homo sapiens) (UniProt P04637)
Sequence (P04637 whole entry, looked up): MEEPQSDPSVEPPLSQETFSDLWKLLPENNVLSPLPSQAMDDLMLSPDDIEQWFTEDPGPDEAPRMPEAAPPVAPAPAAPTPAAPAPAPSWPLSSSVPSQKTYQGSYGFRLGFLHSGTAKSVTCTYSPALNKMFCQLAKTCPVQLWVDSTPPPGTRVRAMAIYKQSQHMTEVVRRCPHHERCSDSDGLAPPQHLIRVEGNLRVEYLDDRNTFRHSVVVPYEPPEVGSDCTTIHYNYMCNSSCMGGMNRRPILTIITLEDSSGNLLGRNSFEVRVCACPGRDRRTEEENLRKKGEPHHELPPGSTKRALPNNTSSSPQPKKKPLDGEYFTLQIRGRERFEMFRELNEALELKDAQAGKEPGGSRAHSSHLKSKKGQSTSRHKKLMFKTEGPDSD
Assay: ATG_p53_CIS: Attagene CIS-FACTORIAL HepG2 Assay for human p53 Transcription Factor (AID 2282994)
Details: HepG2 p53 cis-element reporter, Attagene mRNA; actives raise or lower the signal
Protocol: ATG_CIS is a cell-based, multiplexed-readout assay that uses HepG2, a human liver cell line, with measurements taken at 24 hours after chemical dosing in a 24-well plate.ATG_p53_CIS is one of 52 assay component(s) measured or calculated from the ATG_CIS assay. […] This assay endpoint, ATG_p53_CIS, was analyzed with bidirectional fitting relative to DMSO as the negative control and baseline of activity. […]
Activity calls are given as the source filed them. Rule for the calls: active = hit-call score of the fitted dose curve at least 0.9, where 1 is the maximum; inactive = score below 0.9.
readout-type: AC50

C1COCCN1	inactive
O=C(Cl)C(F)(F)C(F)(F)C(F)(F)C(F)(F)C(F)(F)C(F)(F)C(F)(F)C(F)(F)F	54.3 µM (active)
Cc1cccc(N(C)C)c1	inactive
